PROPERTY_LABEL: pIC50
As a rule, pIC50 stands for the negative log10 of the concentration, concentration in M.

Exercise: # value lookup — system GST-Xa-hAAK1 (Homo sapiens (Human)), readout pIC50, item CC(C)C[C@](C)(N)COc1ccc(-c2ccnc3[nH]ccc23)cc1C(F)(F)F [Example 84]
Key: 8.66

Exercise: # value lookup — system GST-Xa-hAAK1 (Homo sapiens (Human)), readout pIC50, item COC(=O)Nc1cc(-c2cnc(OC[C@@](C)(N)CC(C)C)nc2)ccn1 [Example 211]
Key: 6.31

Exercise: # value lookup — system GST-Xa-hAAK1 (Homo sapiens (Human)), readout pIC50, item CC(C)C[C@](C)(N)COc1cnc(-c2ccnc3cc(C(F)(F)F)ccc23)cc1Cl [Example 242]
Key: 8.72

Exercise: # value lookup — system GST-Xa-hAAK1 (Homo sapiens (Human)), readout pIC50, item Cc1cc(-c2ccnc(F)c2)ccc1OC[C@@](C)(N)CC(C)C [Example 92]
Key: 8.27

Exercise: # value lookup — system GST-Xa-hAAK1 (Homo sapiens (Human)), readout pIC50, item CC(C)C[C@](C)(N)COc1ccc(-c2ccnc3ccc(F)cc23)nc1C(F)F [Example 127]
Key: 8.21

Exercise: # value lookup — system GST-Xa-hAAK1 (Homo sapiens (Human)), readout pIC50, item CC(C)C[C@](C)(N)COc1ccc(-c2ccnc3cc(F)cc(F)c23)cc1C(F)(F)F [Example 72]
Key: 9.28

Exercise: # value lookup — system GST-Xa-hAAK1 (Homo sapiens (Human)), readout pIC50, item CCc1cc(-c2cc(C(F)F)c(OC[C@](C)(N)CC(C)C)cn2)ccn1 [Example 170]
Key: 6.55

Exercise: # value lookup — system GST-Xa-hAAK1 (Homo sapiens (Human)), readout pIC50, item CC(C)C[C@](C)(N)COc1ccc(-c2ccnc3ccncc23)cc1C(F)(F)F [Example 85]
Key: 9.49

Exercise: # value lookup — system GST-Xa-hAAK1 (Homo sapiens (Human)), readout pIC50, item CC(C)C[C@](C)(N)COc1ccc(-c2ccnc(F)c2Cl)cc1C(F)(F)F [Example 39]
Key: 8.49

Exercise: # value lookup — system GST-Xa-hAAK1 (Homo sapiens (Human)), readout pIC50, item CC(C)C[C@@](N)(CF)COc1cnc(-c2ccnc(C(F)F)c2)cc1C(F)F [Example 184]
Key: 8.48

Exercise: # value lookup — system GST-Xa-hAAK1 (Homo sapiens (Human)), readout pIC50, item CC(C)C[C@](C)(N)COc1ccc(-c2ccnc(F)c2F)cc1C(F)(F)F [Example 42]
Key: 8.48

Exercise: # value lookup — system GST-Xa-hAAK1 (Homo sapiens (Human)), readout pIC50, item CC(C)C[C@](C)(N)COc1ccc(-c2ccnc3cc(C(F)(F)F)ccc23)cc1C(F)(F)F [Example 70]
Key: 8.64

Exercise: # value lookup — system GST-Xa-hAAK1 (Homo sapiens (Human)), readout pIC50, item COC(=O)Nc1cc(-c2ccc(OCC3(CC(C)C)CNC3)c(C)n2)ccn1 [Example 108]
Key: 6.97

Exercise: # value lookup — system GST-Xa-hAAK1 (Homo sapiens (Human)), readout pIC50, item CC(C)C[C@](C)(N)COc1ccc(-c2ccnc3ccccc23)nc1C(F)F [Example 118]
Key: 9.07

Exercise: # value lookup — system GST-Xa-hAAK1 (Homo sapiens (Human)), readout pIC50, item Cc1cc(-c2ccc(OC[C@@H](N)CC(C)C)c(C#N)c2)cnn1 [Example 109]
Key: 6.47

Exercise: # value lookup — system GST-Xa-hAAK1 (Homo sapiens (Human)), readout pIC50, item Cc1cc(-c2cc(C(F)F)c(OC[C@@](N)(CF)CC(C)C)cn2)ccn1 [Example 188]
Key: 7.04

Exercise: # value lookup — system GST-Xa-hAAK1 (Homo sapiens (Human)), readout pIC50, item CC(C)C[C@](C)(O)COc1cnc(-c2ccnc3ccccc23)cc1C(F)F [Example 176]
Key: 7.28

====

So I've got pIC50 readings for GST-Xa-hAAK1 (Homo sapiens (Human), UniProt Q2M2I8), take a look.
As a rule, pIC50 stands for the negative log10 of the concentration, concentration in M.

Exercise: # lookup: pIC50 of Cc1nccc(-c2ccc(OC[C@@](C)(N)CC(C)C)c(C(F)(F)F)c2)c1C(=O)O
Key: 6.19

Exercise: # lookup: pIC50 of COC(=O)Nc1cc(-c2cc(OC)c(OC[C@@](C)(N)CC(C)C)cn2)ccn1
Key: 8.37

Exercise: # lookup: pIC50 of Cc1cc(-c2cc(C)c(OC[C@@](C)(N)CC(C)C)cn2)ccn1
Key: 7.66

Exercise: # lookup: pIC50 of CC(C)C[C@](C)(N)COc1cnc(-c2ccnc(Cl)c2)cc1C(F)F
Key: 9.25

Exercise: # lookup: pIC50 of CC(C)C[C@](C)(N)COc1ccc(-c2ccnc3ccc(F)cc23)cc1C(F)(F)F
Key: 9.29

Exercise: # lookup: pIC50 of Cc1cc(-c2cc(C(F)F)c(OC[C@@](C)(N)CC(C)C)cn2)cnn1
Key: 6.28

Exercise: # lookup: pIC50 of COC(=O)Nc1cc(-c2cc(C(F)(F)F)c(OC[C@](C)(N)CC(C)C)cn2)ccn1
Key: 7.70

Exercise: # lookup: pIC50 of Cc1nccc(-c2ccc(OC[C@@](C)(N)CC(C)C)c(C(F)F)n2)n1
Key: 9.11

Exercise: # lookup: pIC50 of COC(=O)Nc1cc(-c2cc(C(F)F)c(OC[C@@](N)(CF)CC(C)C)cn2)ccn1
Key: 8.06

Exercise: # lookup: pIC50 of Cc1nccc(-c2ccc(OC[C@@](C)(N)CC(C)C)c(C#N)c2)c1F
Key: 9.17

Exercise: # lookup: pIC50 of CC(C)CC(C)(N)COc1c(F)cc(-c2ccnc3ccccc23)cc1Cl (centres unmarked)
Key: 7.47

Exercise: # lookup: pIC50 of Cc1cc(-c2ccnc3cc(F)cc(F)c23)cnc1OC[C@@](C)(N)CC(C)C
Key: 8.96

Exercise: # lookup: pIC50 of COC(=O)Nc1cc(-c2cc(C)c(OC[C@@](C)(N)CC(C)C)c(C)n2)ccn1
Key: 7.66

Exercise: # lookup: pIC50 of CC(=O)Nc1cc(-c2ccc(OC[C@@](C)(N)CC(C)C)c(OC(F)(F)F)c2)ccn1
Key: 9.00

Exercise: # lookup: pIC50 of COC(=O)Nc1cc(-c2ccc(OC[C@@](C)(N)CC(C)C)c(C(F)F)c2)ccn1
Key: 9.20

Exercise: # lookup: pIC50 of Cc1cc(-c2cnc(OC[C@@](C)(N)CC(C)C)c(C(F)(F)F)c2)ccn1
Key: 8.39

Exercise: # lookup: pIC50 of CC(=O)Nc1cc(-c2ccc(OC[C@@H](N)CC(C)C)c(Cl)c2)ccn1
Key: 9.28

Exercise: # lookup: pIC50 of CC(C)C[C@](C)(N)COc1ncc(-c2ccnc3cc(F)cc(F)c23)cc1C#N
Key: 9.04

Exercise: # lookup: pIC50 of COC(=O)Nc1cc(-c2ccc(OCC(C)(N)CC(C)C)c(C)c2C)ccn1 (centres unmarked)
Key: 8.35

Exercise: # lookup: pIC50 of COc1cc(-c2ccnc(C(F)F)c2)ncc1OC[C@@](C)(N)CC(C)C
Key: 7.72

Exercise: # lookup: pIC50 of Cc1cc(-c2cnc(OC[C@@](C)(N)CC(C)C)c(C(F)F)c2)ccn1
Key: 8.82

Exercise: # lookup: pIC50 of Cc1cc(-c2cc(C(F)F)c(OC[C@@](C)(N)CC(C)C)cn2)ccn1
Key: 9.29

Exercise: # lookup: pIC50 of CC(=O)Nc1cc(-c2ccc(OC[C@@](C)(N)CC(C)C)c(C#N)c2)ccn1
Key: 9.13

Exercise: # lookup: pIC50 of CC(C)C[C@](C)(N)COc1ccc(-c2ccnc3cccnc23)cc1C#N
Key: 9.06

Exercise: # lookup: pIC50 of Cc1cc(-c2ccc(OC[C@@](C)(N)CC(C)C)c(C(F)F)n2)ccn1
Key: 8.49

Exercise: # lookup: pIC50 of CC(C)C[C@](C)(N)COc1ccc(-c2ccnc(C(F)F)c2)cc1OC(F)(F)F
Key: 9.10

====

target: GST-Xa-hAAK1 (Homo sapiens (Human), UniProt Q2M2I8);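 also: each compound tested across an eleven-point concentration series, with IC50 obtained through non-linear regression fitting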
Sequence (Q2M2I8 whole entry): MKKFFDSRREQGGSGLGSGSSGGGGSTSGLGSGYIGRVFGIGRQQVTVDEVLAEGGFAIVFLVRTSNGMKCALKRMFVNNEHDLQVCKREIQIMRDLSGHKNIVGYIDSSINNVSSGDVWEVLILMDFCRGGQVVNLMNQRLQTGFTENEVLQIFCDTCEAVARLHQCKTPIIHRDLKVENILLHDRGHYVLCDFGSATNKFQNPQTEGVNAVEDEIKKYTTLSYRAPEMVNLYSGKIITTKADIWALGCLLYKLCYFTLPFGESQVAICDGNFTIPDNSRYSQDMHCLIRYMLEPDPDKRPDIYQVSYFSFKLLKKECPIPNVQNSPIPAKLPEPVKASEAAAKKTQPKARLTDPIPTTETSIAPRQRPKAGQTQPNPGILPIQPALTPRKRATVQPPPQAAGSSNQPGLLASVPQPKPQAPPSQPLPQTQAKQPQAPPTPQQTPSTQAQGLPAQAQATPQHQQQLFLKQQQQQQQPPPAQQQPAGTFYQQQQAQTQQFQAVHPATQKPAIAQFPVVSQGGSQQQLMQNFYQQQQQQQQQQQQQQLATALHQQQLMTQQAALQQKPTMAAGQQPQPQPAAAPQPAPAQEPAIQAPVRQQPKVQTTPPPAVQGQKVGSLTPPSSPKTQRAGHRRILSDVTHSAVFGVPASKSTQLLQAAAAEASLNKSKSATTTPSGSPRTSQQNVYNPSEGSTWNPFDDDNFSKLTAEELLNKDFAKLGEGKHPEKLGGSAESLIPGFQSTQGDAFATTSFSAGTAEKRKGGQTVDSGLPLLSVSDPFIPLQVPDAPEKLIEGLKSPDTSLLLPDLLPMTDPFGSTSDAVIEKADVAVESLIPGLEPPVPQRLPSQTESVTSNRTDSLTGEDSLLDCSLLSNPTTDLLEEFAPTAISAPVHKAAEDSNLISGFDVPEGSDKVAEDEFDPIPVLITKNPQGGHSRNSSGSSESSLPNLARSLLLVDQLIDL
pIC50: −log10 of the molar value.
Binary call on pIC50: 1 from 9 upward, -1 beneath that.

Exercise: Has Cc1cc(-c2ccnc3cc(C#N)ccc23)cnc1OC[C@@](C)(N)CC(C)C a recorded pIC50 greater than or equal to 9?
Key: -1

Exercise: Has COC(=O)Nc1cc(-c2ccc(OC[C@@](C)(N)CC(C)C)c(C(F)(F)F)c2)ccn1 a recorded pIC50 greater than or equal to 9?
Key: 1

Exercise: Has CC(=O)Nc1cccc(-c2ccc(OCC(C)(N)CC(C)C)c(C)c2)c1 (stereo not shown) a recorded pIC50 greater than or equal to 9?
Key: -1

Exercise: Has CC(C)C[C@](C)(N)COc1cnc(-c2ccnc3ccc(Cl)cc23)cc1Cl a recorded pIC50 greater than or equal to 9?
Key: 1

Exercise: Has Cc1c(-c2ccc(OC[C@@](C)(N)CC(C)C)c(C(F)(F)F)c2)ccnc1F a recorded pIC50 greater than or equal to 9?
Key: -1

Exercise: Has COC(=O)Nc1cc(-c2ccc(OCC(C)(N)CC(C)C)cn2)ccn1 (stereo not shown) a recorded pIC50 greater than or equal to 9?
Key: -1

Exercise: Has COC(=O)Nc1cc(-c2cnc(OC[C@@](C)(N)CC(C)C)c(C(F)(F)F)c2)ccn1 a recorded pIC50 greater than or equal to 9?
Key: 1

Exercise: Has CC(C)C[C@H](N)COc1ccc(-c2ccnc(N)c2)cc1C#N a recorded pIC50 greater than or equal to 9?
Key: -1

Exercise: Has CC(C)C[C@](N)(CF)COc1ccc(-c2ccnc(C(F)F)c2)nc1C(F)F a recorded pIC50 greater than or equal to 9?
Key: -1

Exercise: Has CC(C)C[C@](C)(N)COc1ccc(-c2ccnc(C(F)F)c2)nc1C(F)F a recorded pIC50 greater than or equal to 9?
Key: -1

Exercise: Has CC(C)C[C@H](N)COc1ccc(-c2ccnc3ccccc23)cc1-c1ccno1 a recorded pIC50 greater than or equal to 9?
Key: -1

Exercise: Has CC(C)C[C@@](C)(N)COc1cnc(-c2ccnc3ccccc23)cc1C(F)(F)F a recorded pIC50 greater than or equal to 9?
Key: -1

Exercise: Has CC(=O)Nc1cccc(-c2ccc(OC[C@](C)(N)CC(C)C)c(C)c2)c1 a recorded pIC50 greater than or equal to 9?
Key: -1

Exercise: Has COC(=O)Nc1cc(-c2ccc(OC[C@@](C)(N)CC(C)C)c(S(C)(=O)=O)c2)ccn1 a recorded pIC50 greater than or equal to 9?
Key: -1

Exercise: Has CC(C)C[C@](C)(N)COc1cnc(-c2ccnc3ccc(F)cc23)cc1Cl a recorded pIC50 greater than or equal to 9?
Key: 1

Exercise: Has CC(C)C[C@](C)(N)COc1ccc(-c2ccnc(F)c2)cc1F a recorded pIC50 greater than or equal to 9?
Key: -1

Exercise: Has CC(=O)Nc1cc(-c2ccc(OC[C@@](C)(N)CC(C)C)c(C(F)(F)F)c2)ccn1 a recorded pIC50 greater than or equal to 9?
Key: 1

Exercise: Has Cc1cc(-c2ccc(OC[C@@](C)(N)CC(C)C)c(C(F)F)c2)ccn1 a recorded pIC50 greater than or equal to 9?
Key: 1

Hey, just so you know, these numbers are from patent US9902722B2.
